Measured values drawn from patent US20250360145A1 for this set.

Assay: In vivo PK study (plasma and brain exposure)
Parameters: species or system CD1 mouse
Conditions: male, serum, po; CD1 mouse, p.o. 45 mg/kg vs i.v. 2 mg/kg

- Smi: "COc1ccc(COc2ncc(Cc3ccnc4cc(-c5ccn(C)n5)cnc34)cc2OC)nc1"
  bioavailability (%): 227
- Smi: "COc1cnc2c(Cc3cnc(OCc4cc5n(n4)CCOC5)c(OC)c3)ccnc2c1"
  bioavailability (%): 98.8
- Smi: "COc1cnc2c(Cc3cnc(OCc4cc5n(n4)C[C@H](OC)C5)c(OC)c3)ccnc2c1"
  bioavailability (%): 77.1
- Smi: "COc1ccc(COc2ncc(Cc3ccnc4cc(N5CCN(C)CC5)cnc34)cc2OC)nc1"
  bioavailability (%): 42.1
- Smi: "COc1ccc(COc2ncc(Cc3ccnc4cc(OC)cnc34)cc2OC)nc1"
  bioavailability (%): 215
- Smi: "COc1cnc2c(Cc3cnc(OCc4ccc(C(F)(F)F)nc4)c(OC)c3)ccnc2c1"
  bioavailability (%): 55
